# maps each entry to its pIC50
System: MDA-MB-231
Experiment: Cytotoxicity against human MDA-MB-231 cells after 48 hrs by MTT assay
Assay type: functional, cell-based
Conditions: MDA-MB-231, 48 h
Bear in mind: pIC50 is minus log10 of a mol/L concentration; give just that figure.

Before answering, review these 3 worked examples.
{"molecule": "COc1cccc2c1C(=O)c1c(O)c3c(c(O)c1C2=O)C[C@@](O)(C(=O)CO)C[C@@H]3O[C@H]1C[C@H](N)[C@@H](O)[C@H](C)O1 [EPIRUBICIN]", "target_under_test": "MDA-MB-231", "recorded_number": 6.05}
{"molecule": "CC[C@@]1(O)C[C@H](O)c2c(O)c3c(c(O)c2[C@H]1C(=O)OC)C(=O)c1cccc(O)c1C3=O", "target_under_test": "MDA-MB-231", "recorded_number": 4.88}
{"molecule": "CC[C@@]1(O)C[C@H](O[C@H]2CC[C@H](O[C@H]3CC[C@H](O[C@H]4CC[C@H](O)[C@H](C)O4)[C@H](C)O3)[C@H](C)O2)c2c(O)c3c(c(O)c2[C@H]1C(=O)OC)C(=O)c1cccc(O)c1C3=O", "target_under_test": "MDA-MB-231", "recorded_number": 5.35}

Entry under review: CC[C@@]1(O)CCc2c(O)c3c(c(O)c2[C@H]1O)C(=O)c1cccc(O)c1C3=O . Reported pIC50?
4.96

What do we get for CC[C@@]1(O)C[C@H](O[C@H]2C[C@H](O)[C@H](O[C@H]3CC[C@H](O[C@H]4C[C@H](O)[C@H](O)[C@H](C)O4)[C@H](C)O3)[C@H](C)O2)c2c(O)c3c(c(O)c2[C@H]1O)C(=O)c1cccc(O)c1C3=O ?
4.72

Also CC[C@@]1(O)C[C@H](O[C@H]2C[C@H](O)[C@H](O[C@H]3C[C@H](O)[C@H](O[C@H]4CCC(=O)[C@H](C)O4)[C@H](C)O3)[C@H](C)O2)c2c(O)c3c(c(O)c2[C@H]1O)C(=O)c1cccc(O)c1C3=O , if possible.
5.27

---

Tested on: NCI-H460
Experiment: Cytotoxicity against human NCI-H460 cells after 48 hrs by MTT assay
Type: functional, cell-based
Conditions: NCI-H460, 48 h
pIC50: −log10 of the molar value.
Everything with pIC50 lower than 6 is false (0); everything else, including exactly 6, is true (1).

Previously resolved entries follow.
{"molecule": "CC[C@@]1(O)C[C@H](O[C@H]2C[C@H](O)[C@H](O[C@H]3C[C@H](O)[C@H](O[C@H]4CCC(=O)[C@H](C)O4)[C@H](C)O3)[C@H](C)O2)c2c(O)c3c(c(O)c2[C@H]1O)C(=O)c1cccc(O)c1C3=O", "qualitative_label": "true (1)"}
{"molecule": "CC[C@@]1(O)C[C@H](O[C@H]2C[C@H](O)[C@H](O[C@H]3CC[C@H](O[C@H]4CC[C@H](OC5CC[C@H](O)[C@H](C)O5)[C@H](C)O4)[C@H](C)O3)[C@H](C)O2)c2c(O)c3c(c(O)c2[C@H]1O)C(=O)c1cccc(O)c1C3=O (stereo partly specified)", "qualitative_label": "false (0)"}
{"molecule": "CC[C@@]1(O)C[C@H](O[C@H]2C[C@H](O)[C@H](O[C@H]3CC[C@H](O[C@H]4C[C@H](O)[C@H](O)[C@H](C)O4)[C@H](C)O3)[C@H](C)O2)c2c(O)c3c(c(O)c2[C@H]1O)C(=O)c1cccc(O)c1C3=O", "qualitative_label": "false (0)"}
{"molecule": "CC[C@@]1(O)C[C@H](O[C@H]2CC[C@H](O[C@H]3C[C@H](O)[C@H](O[C@H]4CCC(=O)[C@H](C)O4)[C@H](C)O3)[C@H](C)O2)c2c(O)c3c(c(O)c2[C@H]1O)C(=O)c1cccc(O)c1C3=O", "qualitative_label": "false (0)"}
{"molecule": "CC[C@@]1(O)C[C@H](O[C@H]2CC[C@H](O[C@H]3CC[C@H](O[C@H]4CC[C@H](O)[C@H](C)O4)[C@H](C)O3)[C@H](C)O2)c2c(O)c3c(c(O)c2[C@H]1C(=O)OC)C(=O)c1cccc(O)c1C3=O", "qualitative_label": "false (0)"}

Evaluate CC[C@@]1(O)C[C@H](O[C@H]2CC[C@H](O[C@H]3C[C@H](O)[C@H](O[C@H]4CC[C@H](O)[C@H](C)O4)[C@H](C)O3)[C@H](C)O2)c2c(O)c3c(c(O)c2[C@H]1C(=O)OC)C(=O)c1cccc(O)c1C3=O : pIC50 at minimum 6?
false (0)

What would you report for CC[C@@]1(O)CCc2c(O)c3c(c(O)c2[C@H]1O)C(=O)c1cccc(O)c1C3=O ?
false (0)

Queued: CC[C@@]1(O)C[C@H](O[C@H]2C[C@H](O)[C@H](O[C@H]3C[C@H](O)[C@H](O[C@H]4C[C@H](O)[C@H](O)[C@H](C)O4)[C@H](C)O3)[C@H](C)O2)c2c(O)c3c(c(O)c2[C@H]1O)C(=O)c1cccc(O)c1C3=O
false (0)

Note, next up: COc1cccc2c1C(=O)c1c(O)c3c(c(O)c1C2=O)C[C@@](O)(C(=O)CO)C[C@@H]3O[C@H]1C[C@H](N)[C@@H](O)[C@H](C)O1 [EPIRUBICIN]
true (1)

Follow-up entry: CC[C@@]1(O)C[C@H](O[C@H]2CC[C@H](O[C@H]3C[C@H](O)[C@H](O[C@H]4CC[C@H](O)[C@H](C)O4)[C@H](C)O3)[C@H](C)O2)c2c(O)c3c(c(O)c2[C@H]1O)C(=O)c1cccc(O)c1C3=O
false (0)

Also check CC[C@@]1(O)C[C@H](O[C@H]2C[C@H](O)[C@H](O[C@H]3C[C@H](O)[C@H](O)[C@H](C)O3)[C@H](C)O2)c2c(O)c3c(c(O)c2[C@H]1O)C(=O)c1cccc(O)c1C3=O
true (1)

Next record, please: CC[C@@]1(O)C[C@H](O)c2c(O)c3c(c(O)c2[C@H]1C(=O)OC)C(=O)c1cccc(O)c1C3=O
false (0)

Another molecule to look at: CC[C@]1(O)Cc2c(O)c3c(c(O)c2[C@@H](O[C@H]2C[C@H](O)[C@H](O[C@H]4CC[C@H](O[C@H]5CC[C@H](O)[C@H](C)O5)[C@H](C)O4)[C@H](C)O2)C1)C(=O)c1c(O)cccc1C3=O
false (0)
